Task for the reader: assign each of the following molecules its reported Solubility.
# assay comment: Solubility in distilled water
# assay context: in distilled water at 23° C.

[
  {
    "item smiles": "CC[C@H](C)[C@@H]([C@@H](CC(=O)N1CCC[C@H]1[C@H](OC)[C@@H](C)C(=O)NCCc1ccc(OP(=O)([O-])[O-])cc1)OC)N(C)C(=O)[C@@H](NC(=O)[C@H](C(C)C)N(C)C)C(C)C.[K+].[K+]",
    "measured attribute": "Solubility",
    "recorded value": ">120 mg/mL"
  },
  {
    "item smiles": "CC[C@H](C)[C@@H]([C@@H](CC(=O)N1CCC[C@H]1[C@H](OC)[C@@H](C)C(=O)NCCc1ccc(OP(=O)([O-])[O-])cc1)OC)N(C)C(=O)[C@@H](NC(=O)[C@H](C(C)C)N(C)C)C(C)C.[Li+].[Li+]",
    "measured attribute": "Solubility",
    "recorded value": ">65 mg/mL"
  },
  {
    "item smiles": "C1COCCN1.CC[C@H](C)[C@@H]([C@@H](CC(=O)N1CCC[C@H]1[C@H](OC)[C@@H](C)C(=O)NCCc1ccc(OP(=O)(O)O)cc1)OC)N(C)C(=O)[C@@H](NC(=O)[C@H](C(C)C)N(C)C)C(C)C",
    "measured attribute": "Solubility",
    "recorded value": ">72 mg/mL"
  }
]

// switching to the query molecule
Incoming: Which measured Solubility value corresponds to CC[C@H](C)[C@@H]([C@@H](CC(=O)N1CCC[C@H]1[C@H](OC)[C@@H](C)C(=O)NCCc1ccc(OP(=O)(O)O)cc1)OC)N(C)C(=O)[C@@H](NC(=O)[C@H](C(C)C)N(C)C)C(C)C.NC(CO)(CO)CO ?
Outgoing: >51 mg/mL
